# Target: Human CB1R (Cannabinoid receptor 1) (Homo sapiens)
# Sequence (P21554 whole entry): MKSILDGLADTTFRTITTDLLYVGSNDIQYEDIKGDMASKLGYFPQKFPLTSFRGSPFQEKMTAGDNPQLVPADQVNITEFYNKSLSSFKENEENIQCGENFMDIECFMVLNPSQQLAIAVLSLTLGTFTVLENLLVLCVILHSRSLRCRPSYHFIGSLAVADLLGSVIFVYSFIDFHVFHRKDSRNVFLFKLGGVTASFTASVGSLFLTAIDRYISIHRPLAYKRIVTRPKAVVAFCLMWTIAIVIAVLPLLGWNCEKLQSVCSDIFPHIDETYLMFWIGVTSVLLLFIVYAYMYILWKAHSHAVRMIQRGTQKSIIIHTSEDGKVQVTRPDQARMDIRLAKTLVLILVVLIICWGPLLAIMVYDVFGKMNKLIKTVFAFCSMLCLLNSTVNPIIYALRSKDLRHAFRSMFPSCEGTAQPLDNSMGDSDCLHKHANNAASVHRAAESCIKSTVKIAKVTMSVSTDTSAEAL
# Procedure Details: CB-1 in vitro cAMP (HTRF) assay
# Format: cell-based
# Test Settings: HEK cells, cAMP HTRF, 250 nM forskolin; mean where tested more than once; read-out: CB1 HEK_cAMP EC50
pEC50: −log10 of the molar value.

{"Compound": "O=C(O)c1ccccc1S(=O)(=O)N1CCC(n2c(C3CC3)nc3ccc(C(c4ccc(Cl)cc4)c4ccc(Cl)cc4)cc32)CC1", "pEC50": 6.34}
{"Compound": "O=S(=O)(c1ccc(O)c(F)c1)N1CCC(n2c(C3CC3)nc3ccc(C(c4ccc(Cl)cc4)c4ccc(Cl)cc4)cc32)CC1", "pEC50": 5.86}
{"Compound": "Oc1cccc(-n2c(C3CC3)nc3ccc(C(c4ccc(Cl)cc4)c4ccc(Cl)cc4)cc32)c1", "pEC50": 7.77}
{"Compound": "O=S(=O)(N1CCC(n2c(-c3ccccn3)nc3ccc(C(c4ccc(Cl)cc4)c4nccs4)cc32)CC1)C(F)(F)F (stereo not shown)", "pEC50": 6.28}
{"Compound": "O=C(O)c1cccc(CN2CCC(n3c(C4CC4)nc4ccc(C(c5ccc(Cl)cc5)c5ccc(Cl)cc5)cc43)CC2)c1O", "pEC50": 7.49}
{"Compound": "COc1ccc(C(c2ccc(OC)cc2)c2ccc3nc(C4CCC4)n(C4CCN(S(=O)(=O)C(F)(F)F)CC4)c3c2)cc1", "pEC50": 7.16}
{"Compound": "O=C(O)c1cccc(-c2cccc(CCn3c(C4CC4)nc4ccc(C(c5ccc(Cl)cc5)c5ccc(Cl)cc5)cc43)c2)c1", "pEC50": 7.31}

###

# Target: Human CB2R (Cannabinoid receptor 2) (Homo sapiens)
# Sequence (P34972 whole entry): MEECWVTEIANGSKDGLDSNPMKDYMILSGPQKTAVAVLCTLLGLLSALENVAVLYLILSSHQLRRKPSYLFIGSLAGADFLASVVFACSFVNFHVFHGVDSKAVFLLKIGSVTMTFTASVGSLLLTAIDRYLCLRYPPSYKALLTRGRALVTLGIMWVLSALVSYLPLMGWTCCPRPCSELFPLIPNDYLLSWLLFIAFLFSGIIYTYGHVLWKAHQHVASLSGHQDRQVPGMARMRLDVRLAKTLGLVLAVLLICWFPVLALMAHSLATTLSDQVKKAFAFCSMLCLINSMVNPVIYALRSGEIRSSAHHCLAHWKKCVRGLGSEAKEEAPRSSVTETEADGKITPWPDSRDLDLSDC
# Procedure Details: CB-2 in vitro cAMP (HTRF) assay
# Test Settings: second line; the sentence announces activity against CB-1 and CB-2; read-out: CB-1 receptor: IC50 (second line of the list)

{"Molecule": "O=S(=O)(c1cccc(NCCOCCOCc2ccccc2)c1)N1CCC(n2c(C3CC3)nc3ccc(C(c4ccc(Cl)cc4)c4ccc(Cl)cc4)cc32)CC1 [compound of formula (II)]", "Target": "Human CB2R (Cannabinoid receptor 2) (Homo sapiens)", "IC50": "> 10 µM"}

###

# Target: UniProt:P34972
# Procedure Details: CB-2 in vitro cAMP (HTRF) assay
# Test Settings: HEK cells, cAMP HTRF, 250 nM forskolin; mean where tested more than once; read-out: CB2 HEK_cAMP EC50
pEC50: −log10 of the molar value.

{"Compound": "O=C(O)c1ccc(S(=O)(=O)N2CCC(n3c(C4CC4)nc4ccc(C(c5ccc(Cl)cc5)c5ccc(Cl)cc5)cc43)CC2)cc1F [Example 190]", "pEC50": 6.16}
{"Compound": "COC(=O)c1ccc(OCCn2c(C3CC3)nc3ccc(C(c4ccc(Cl)cc4)c4ccc(Cl)cc4)cc32)nc1 [Example 34]", "pEC50": 5.17}
{"Compound": "O=C(O)c1cc(OCCn2c(C3CC3)nc3ccc(C(c4ccc(Cl)cc4)c4ccc(Cl)cc4)cc32)cc(C(F)(F)F)c1 [Example 16]", "pEC50": 6.16}
{"Compound": "O=C(O)c1cccc(CN2CCC(Cn3c(C4CC4)nc4ccc(C(c5ccc(Cl)cc5)c5ccc(Cl)cc5)cc43)CC2)c1 [Example 10]", "pEC50": 5.76}

###

Catalogue of concentration at 4 h values
# Procedure Details: Mouse Fast PK/BBB: plasma and brain concentration
# Assay type: in vivo, Male C57bl/6j mice
# Test Settings: male, C57bl/6j, mouse, brain (whole brain without cerebellum); mice, dose 30 mg/kg oral, 4 hr; read-out: Brain Mean Conc. ± Std. Dev

{"Line Notation": "O=C(O)c1ccc(F)c(CN2CCC(n3c(C4CC4)nc4ccc(C(c5ccc(Cl)cc5)c5ccc(Cl)cc5)cc43)CC2)c1", "Measure Unit": "ng/mL", "concentration at 4 h": 89.2}
{"Line Notation": "O=C(O)c1cccc(CN2CCC(n3c(C4CC4)nc4ccc(C(c5ccc(Cl)cc5)c5ccc(Cl)cc5)cc43)CC2)c1", "Measure Unit": "ng/mL", "concentration at 4 h": 417}
{"Line Notation": "O=C(O)c1cc(F)cc(CN2CCC(n3c(C4CC4)nc4ccc(C(c5ccc(Cl)cc5)c5ccc(Cl)cc5)cc43)CC2)c1", "Measure Unit": "ng/mL", "concentration at 4 h": 129}

###

# Target: Human CB2R (Cannabinoid receptor 2) (Homo sapiens)
# Procedure Details: CB-2 in vitro cAMP (HTRF) assay
# Test Settings: HEK cells, cAMP HTRF, 250 nM forskolin; mean where tested more than once; read-out: CB2 HEK_cAMP EC50
pEC50: −log10 of the molar value.
Readout Label: pEC50

{"Molecule": "O=S(=O)(c1cccc(O)c1)N1CCC(n2c(C3CC3)nc3ccc(C(c4ccc(Cl)cc4)c4ccc(Cl)cc4)cc32)CC1", "Value": "< 5.00"}
{"Molecule": "NCCS(=O)(=O)N1CCC(n2c(C3CC3)nc3ccc(C(c4ccc(Cl)cc4)c4ccc(Cl)cc4)cc32)CC1", "Value": "< 4.38"}
{"Molecule": "CCc1nc2ccc(C(CO)(c3ccc(Cl)cc3)c3ccc(Cl)cc3)cc2n1C1CCN(S(=O)(=O)C(F)(F)F)CC1", "Value": "< 5.00"}
{"Molecule": "Clc1ccc(C(c2ccc3nc(C4CC4)n(C4CCc5ccccc5C4)c3c2)c2nccs2)cc1 (stereo not shown)", "Value": "< 5.00"}
{"Molecule": "COc1cc(S(=O)(=O)N2CCC(n3c(C4CC4)nc4ccc(C(CO)(c5ccc(Cl)cc5)c5ccc(Cl)cc5)cc43)CC2)ccc1C(=O)O", "Value": "< 5.00"}
{"Molecule": "O=C(O)c1ccc(Cn2c(C3CC3)nc3ccc(C(c4ccc(Cl)cc4)c4ccc(Cl)cc4)cc32)cc1", "Value": "< 5.00"}
{"Molecule": "O=S(=O)(c1ccc(O)c(F)c1)N1CCC(n2c(C3CC3)nc3ccc(C(c4ccc(Cl)cc4)c4ccc(Cl)cc4)cc32)CC1", "Value": 5.23}

###

# Target: Human CB1R (Cannabinoid receptor 1) (Homo sapiens)
# Procedure Details: CB-1 in vitro cAMP (HTRF) assay
# Type: cell-based
# Test Settings: HEK cells, cAMP HTRF, 250 nM forskolin; mean where tested more than once; read-out: CB1 HEK_cAMP EC50
pEC50: −log10 of the molar value.

{"Molecule": "O=C(O)c1cccc(CN2CCC(n3c(C4CC4)nc4ccc(C(c5ccc(Cl)cc5)c5ccc(Cl)cc5)cc43)CC2)c1", "Value Comparator": "=", "pEC50": 8.02}
{"Molecule": "CCOC(=O)c1nc2ccc(C(c3ccc(Cl)cc3)c3nccs3)cc2n1C1CCN(C(=O)OCC)CC1 (stereo not drawn)", "Value Comparator": "=", "pEC50": 6.50}
{"Molecule": "COCC(c1ccc(Cl)cc1)(c1ccc(Cl)cc1)c1ccc2nc(C3CC3)n(C3CCN(S(=O)(=O)c4ccc(C(=O)O)c(Cl)c4)CC3)c2c1", "Value Comparator": "=", "pEC50": 7.17}
{"Molecule": "Oc1cccc(CN2CCC(n3c(C4CC4)nc4ccc(C(c5ccc(Cl)cc5)c5ccc(Cl)cc5)cc43)CC2)c1", "Value Comparator": "=", "pEC50": 7.65}
{"Molecule": "CCc1nc2ccc(C(c3ccc(Cl)cc3)c3ccc(Cl)cc3)cc2n1C1Cc2ccccc2C1", "Value Comparator": "=", "pEC50": 6.21}
{"Molecule": "O=C(O)c1ccc(CN2CCC(n3c(C4CC4)nc4ccc(C(c5ccc(Cl)cc5)c5ccc(Cl)cc5)cc43)CC2)nc1", "Value Comparator": "=", "pEC50": 7.46}
{"Molecule": "CC(c1cccc(C(=O)O)c1)N1CCC(n2c(C3CC3)nc3ccc(C(c4ccc(Cl)cc4)c4ccc(Cl)cc4)cc32)CC1 (single isomer, unassigned) [Example 48]", "Value Comparator": "=", "pEC50": 8.52}
{"Molecule": "CCOC(=O)N1CCC(n2c(-c3ccc(Cl)cc3Cl)nc3ccc(C(c4ccc(Cl)cc4)c4nccs4)cc32)CC1 (stereo not drawn)", "Value Comparator": "=", "pEC50": 5.84}
{"Molecule": "O=C(O)c1csc(S(=O)(=O)N2CCC(n3c(C4CC4)nc4ccc(C(c5ccc(Cl)cc5)c5ccc(Cl)cc5)cc43)CC2)c1", "Value Comparator": "=", "pEC50": 8.07}
{"Molecule": "O=S(=O)(c1ccc(O)cc1)N1CCC(n2c(C3CC3)nc3ccc(C(c4ccc(Cl)cc4)c4ccc(Cl)cc4)cc32)CC1", "Value Comparator": "=", "pEC50": 8.27}
{"Molecule": "Cc1nc2ccc(C(c3ccc(Cl)cc3)c3nccs3)cc2n1CCc1cccc(Cl)c1 (stereo not drawn)", "Value Comparator": "=", "pEC50": 6.72}
{"Molecule": "O=C(O)COc1ccc(N2CCC(n3c(C4CC4)nc4ccc(C(c5ccc(Cl)cc5)c5ccc(Cl)cc5)cc43)CC2)cc1", "Value Comparator": "=", "pEC50": 5.80}
{"Molecule": "CCC(c1cccc(C(=O)O)c1)N1CCC(n2c(C3CC3)nc3ccc(C(c4ccc(Cl)cc4)c4ccc(Cl)cc4)cc32)CC1 (stereo not drawn)", "Value Comparator": "=", "pEC50": 8.07}
{"Molecule": "Clc1ccc(Cn2cnc3ccc(C(c4ccc(Cl)cc4)c4nccs4)cc32)cc1 (stereo not drawn)", "Value Comparator": "<", "pEC50": 5.06}
{"Molecule": "O=C(O)c1cccc(N[C@H]2CC[C@H](n3c(C4CC4)nc4ccc(C(c5ccc(Cl)cc5)c5ccc(Cl)cc5)cc43)CC2)c1", "Value Comparator": "=", "pEC50": 6.82}
{"Molecule": "O=S(=O)(c1ccc(C(F)(F)F)cc1)N1CCC(n2c(C3CC3)nc3ccc(C(c4ccc(Cl)cc4)c4ccc(Cl)cc4)cc32)CC1", "Value Comparator": "=", "pEC50": 7.98}
{"Molecule": "CC(c1cccc(O)c1)N1CCC(n2c(C3CC3)nc3ccc(C(c4ccc(Cl)cc4)c4ccc(Cl)cc4)cc32)CC1 (stereo not drawn)", "Value Comparator": "=", "pEC50": 7.71}
{"Molecule": "O=C(O)c1ccc(S(=O)(=O)N2CCC(n3c(C4CC4)nc4ccc(C(c5ccc(Cl)cc5)c5ccc(Cl)cc5)cc43)CC2)cc1F", "Value Comparator": "=", "pEC50": 7.95}
{"Molecule": "COc1ccc(S(=O)(=O)N2CCC(n3c(C4CC4)nc4ccc(C(c5ccc(Cl)cc5)c5ccc(Cl)cc5)cc43)CC2)cc1C(=O)O", "Value Comparator": "=", "pEC50": 6.23}
{"Molecule": "NC(=O)[C@H]1CC[C@@H](n2c(C3CC3)nc3ccc(C(c4ccc(Cl)cc4)c4ccc(Cl)cc4)cc32)CC1", "Value Comparator": "=", "pEC50": 7.49}
{"Molecule": "O=C(c1nc[nH]n1)N1CCC(n2c(C3CC3)nc3ccc(C(c4ccc(Cl)cc4)c4ccc(Cl)cc4)cc32)CC1", "Value Comparator": "=", "pEC50": 7.20}
{"Molecule": "O=S(=O)(N1CCC(Cn2cnc3ccc(C(c4ccc(Cl)cc4)c4nccs4)cc32)CC1)C(F)(F)F (stereo not drawn)", "Value Comparator": "=", "pEC50": 6.21}
{"Molecule": "O=C(O)c1ccc(S(=O)(=O)N2CCC(n3c(C4CC4)nc4ccc(C(c5ccc(Cl)cc5)c5ccc(Cl)cc5)cc43)CC2)cc1C(F)(F)F", "Value Comparator": "=", "pEC50": 8.43}
{"Molecule": "O=C(O)c1cccc(S(=O)(=O)N2CCC(n3c(C4CC4)nc4ccc(C(c5ccc(Cl)cc5)c5ccc(Cl)cc5)cc43)CC2)c1", "Value Comparator": "=", "pEC50": 7.74}
{"Molecule": "O=C(O)c1cc(OCCn2c(C3CC3)nc3ccc(C(c4ccc(Cl)cc4)c4ccc(Cl)cc4)cc32)cc(C(F)(F)F)c1", "Value Comparator": "=", "pEC50": 6.76}
{"Molecule": "Clc1ccc(C(c2ccc3nc(C4CC4)n(CCc4cccc(Cl)c4)c3c2)c2nccs2)cc1 (stereo not drawn)", "Value Comparator": "=", "pEC50": 7.77}
{"Molecule": "NC(=O)CS(=O)(=O)N1CCC(n2c(C3CC3)nc3ccc(C(c4ccc(Cl)cc4)c4ccc(Cl)cc4)cc32)CC1", "Value Comparator": "=", "pEC50": 6.89}
